Delta MST: recorded values
tested on: Trypanosoma brucei rhodesiense; assay: Antitrypanosomal activity against Trypanosoma rhodesiense infections in mice, 106 mg/kg administered subcutaneously; type: functional; details: route subcutaneous
The reply must contain the numeric value and, after it, the unit.

// solved cases for Delta MST follow
[[record]]
smiles_data = "CC1(C)N=C(N)N=C(N)N1c1ccc(OCCCCOc2ccc(N3C(N)=NC(N)=NC3(C)C)cc2)cc1.Cl.Cl"
system_tested = "Trypanosoma brucei rhodesiense"
parameter_measured = "Delta MST"
assay_result = "1 days"

[[record]]
smiles_data = "CC1(C)N=C(N)N=C(N)N1c1ccc(OCCCCCCCCCCOc2ccc(N3C(N)=NC(N)=NC3(C)C)cc2)cc1.Cl.Cl"
system_tested = "Trypanosoma brucei rhodesiense"
parameter_measured = "Delta MST"
assay_result = "0.1 days"

[[record]]
smiles_data = "CC1(C)N=C(N)N=C(N)N1c1ccc(C(c2ccccc2)c2ccc(N3C(N)=NC(N)=NC3(C)C)cc2)cc1.Cl.Cl"
system_tested = "Trypanosoma brucei rhodesiense"
parameter_measured = "Delta MST"
assay_result = "4.3 days"

[[record]]
smiles_data = "CC1(C)N=C(N)N=C(N)N1c1ccc2c(c1)S(=O)(=O)c1cc(N3C(N)=NC(N)=NC3(C)C)ccc1C2.Cl.Cl"
system_tested = "Trypanosoma brucei rhodesiense"
parameter_measured = "Delta MST"
assay_result = "-0.3 days"

[[record]]
smiles_data = "Cl.Cl.N=C(N)NC(=N)Nc1ccc(CCc2ccc(NC(=N)N=C(N)N)cc2)cc1"
system_tested = "Trypanosoma brucei rhodesiense"
parameter_measured = "Delta MST"
assay_result = "8 days"

[[record]]
smiles_data = "COc1cc(-c2ccc(N3C(N)=NC(N)=NC3(C)C)c(OC)c2)ccc1N1C(N)=NC(N)=NC1(C)C.Cl.Cl"
system_tested = "Trypanosoma brucei rhodesiense"
parameter_measured = "Delta MST"
assay_result = "11.2 days"


Indicate its recorded Delta MST; the molecule in question is CC1(C)N=C(N)N=C(N)N1c1ccc2c(c1)Cc1cc(N3C(N)=NC(N)=NC3(C)C)ccc1-2.Cl.Cl
2 days

Indicate its recorded Delta MST; the molecule in question is CC1(C)N=C(N)N=C(N)N1c1ccc(N2C(N)=NC(N)=NC2(C)C)cc1.Cl.Cl
0.2 days

Indicate its recorded Delta MST; the molecule in question is CC1(C)N=C(N)N=C(N)N1c1ccc(SSc2ccc(N3C(N)=NC(N)=NC3(C)C)cc2)cc1.Cl.Cl
0.1 days

Indicate its recorded Delta MST; the molecule in question is CC1(C)N=C(N)NC(Nc2ccc(NC3=NC(C)(C)N=C(N)N3)cc2)=N1.Cl.Cl
1.9 days

Indicate its recorded Delta MST; the molecule in question is CC(C)(c1ccc(N2C(N)=NC(N)=NC2(C)C)cc1)c1ccc(N2C(N)=NC(N)=NC2(C)C)cc1.Cl.Cl
1.8 days

Indicate its recorded Delta MST; the molecule in question is CC1(C)N=C(N)N=C(N)N1c1ccc(OCCCCCCCCCCCCOc2ccc(N3C(N)=NC(N)=NC3(C)C)cc2)cc1.Cl.Cl
0.8 days

Indicate its recorded Delta MST; the molecule in question is CC1(C)N=C(N)N=C(N)N1c1cc(C(=O)O)cc(N2C(N)=NC(N)=NC2(C)C)c1.Cl.Cl
0.1 days

Indicate its recorded Delta MST; the molecule in question is CC1(C)N=C(N)N=C(N)N1c1ccc(CC(Cc2ccc(N3C(N)=NC(N)=NC3(C)C)cc2)C(=O)O)cc1.Cl.Cl
0.2 days

Indicate its recorded Delta MST; the molecule in question is Cc1ccc(N2C(N)=NC(N)=NC2(C)C)cc1NC(=O)Nc1cc(N2C(N)=NC(N)=NC2(C)C)ccc1C.Cl.Cl
-0.1 days

Indicate its recorded Delta MST; the molecule in question is Cl.Cl.NC1=NC2(CCCCC2)NC(Nc2ccc(CCc3ccc(NC4=NC5(CCCCC5)NC(N)=N4)cc3)cc2)=N1
0.2 days

meta.source: ChEMBL document CHEMBL1122854
